The compounds listed here are annotated with their AC50.
TARGET_UNDER_TEST: human PAH with the R408W mutation (Homo sapiens, UniProt P00439, R408W)
Construct: expressed in transfected cells
PROTOCOL_DESCRIPTION: Cell Based Phenylalanine Flux Assay
CONDITION_NOTES: A375 cells expressing human R408W PAH; 24 hrs compound incubation; 13C-Tyrosine by LC-MS; average where tested multiple times; read-out: AC50

Completed entries (count: 5):
| COMPOUND | TARGET_UNDER_TEST | RESULT |
| --- | --- | --- |
| O=C(c1nnc(-c2ccccn2)o1)N1CCc2[nH]cnc2[C@H]1c1cc2c(Cl)cccn2n1 [Example 735] | human PAH with the R408W mutation (Homo sapiens, UniProt P00439, R408W) | < 500 nM |
| O=C(c1nnc(-c2ccc(F)cn2)o1)N1CCc2[nH]cnc2[C@@H]1c1cc2c(F)cccn2n1 [Example 880] | human PAH with the R408W mutation (Homo sapiens, UniProt P00439, R408W) | > 5000 nM |
| COc1ccc(-c2nnc(C(=O)N3CCc4[nH]cnc4[C@@H]3c3cc4c(C)cccn4n3)o2)nc1 [Example 816] | human PAH with the R408W mutation (Homo sapiens, UniProt P00439, R408W) | > 5000 nM |
| Cc1cccn2nc([C@H]3c4nc[nH]c4CCN3C(=O)c3oc(-c4cnn(C)c4)nc3C(F)F)cc12 [Example 1009] | human PAH with the R408W mutation (Homo sapiens, UniProt P00439, R408W) | 500 to 1000 nM |
| Cc1ccc2cc([C@H]3c4nc[nH]c4CCN3C(=O)c3nnc(-c4ccccn4)o3)nn2c1 [Example 813] | human PAH with the R408W mutation (Homo sapiens, UniProt P00439, R408W) | > 5000 nM |

query: Given the entry O=C(c1oc(C2(O)CC2)nc1C(F)F)N1CCc2[nH]cnc2[C@H]1c1cc2c(Cl)cccn2n1 [Example 704] , report its measured AC50.
result: < 500 nM

query: Given the entry Cc1cccc2cc([C@H]3c4nc[nH]c4CCN3C(=O)c3nnc(-c4ncccc4F)o3)nn12 [Example 913] , report its measured AC50.
result: > 5000 nM

query: Given the entry Cc1nc([C@@H](C)O)oc1C(=O)N1CCc2[nH]cnc2[C@@H]1c1cc2c(C)cccn2n1 [Example 753] , report its measured AC50.
result: 1000 to 5000 nM

query: Given the entry Cn1ccc(-c2nnc(C(=O)N3CCc4[nH]cnc4[C@@H]3c3cc4ccc(C(F)(F)F)cn4n3)o2)n1 [Example 1129] , report its measured AC50.
result: 1000 to 5000 nM

query: Given the entry Cc1cccn2nc([C@H]3c4nc[nH]c4CCN3C(=O)c3nnc(-c4ccccn4)o3)cc12 [Example 740] , report its measured AC50.
result: > 5000 nM

query: Given the entry Cc1nc(C(C)(C)F)oc1C(=O)N1CCc2[nH]cnc2[C@H]1c1cc2c(C)cccn2n1 [Example 1260] , report its measured AC50.
result: < 500 nM

query: Given the entry O=C(c1nnc(-c2ccc(C(F)(F)F)cn2)o1)N1CCc2[nH]cnc2[C@H]1c1cc2c(F)cccn2n1 [Example 879] , report its measured AC50.
result: < 500 nM

query: Given the entry CC(C)(F)c1nnc(C(=O)N2CCc3[nH]cnc3[C@@H]2c2cc3cccc(F)n3n2)o1 [Example 986] , report its measured AC50.
result: 1000 to 5000 nM

query: Given the entry Cc1cccn2nc([C@@H]3c4nc[nH]c4CCN3C(=O)c3ccnn3C3CC3)cc12 [Example 860] , report its measured AC50.
result: < 500 nM

query: Given the entry Cc1nc(C(=O)N2CCc3[nH]cnc3[C@H]2c2cc3c(C(F)(F)F)cccn3n2)n(C)n1 [Example 1082] , report its measured AC50.
result: < 500 nM

====

TARGET_UNDER_TEST: human PAH with the R408W mutation (Homo sapiens, UniProt P00439, R408W)
Construct: expressed in transfected cells
PROTOCOL_DESCRIPTION: Cell Based Phenylalanine Flux Assay
CONDITION_NOTES: A375 cells expressing human PAH R408W; 24 hrs compound incubation; 13C-Tyrosine by LC-MS; average where tested multiple times; read-out: AC50
READOUT_KIND: AC50

Completed entries (count: 5):
| CHEMICAL_STRING | READOUT_KIND | RESULT |
| --- | --- | --- |
| Cc1ncccc1-c1nnc(N2CCc3[nH]cnc3[C@@H]2c2cc3cccc(Cl)n3n2)o1 | AC50 | > 5000 nM |
| O=C(c1nnc(-c2ncccn2)o1)N1CCc2[nH]cnc2[C@H]1c1cc2c(OC(F)(F)F)cccn2n1 | AC50 | 1000 to 5000 nM |
| O=C(c1nnc(-c2ncccc2F)o1)N1CCc2[nH]cnc2[C@@H]1c1cc2c(C3CC3)cccn2n1 | AC50 | > 5000 nM |
| CC(C)c1cccn2nc([C@H]3c4nc[nH]c4CCN3C(=O)c3nnc(-c4ccccn4)o3)cc12 | AC50 | > 5000 nM |
| CC(C)(C)c1nnc(C(=O)N2CCc3[nH]cnc3[C@@H]2c2cc3c(C4CC4)cccn3n2)o1 | AC50 | > 5000 nM |

query: Given the entry Cc1cccnc1-c1nnc(N2CCc3[nH]cnc3[C@H]2c2cc3c(F)cccn3n2)o1 , report its measured AC50.
result: < 500 nM

query: Given the entry FC(F)(F)Oc1cccn2nc([C@@H]3c4nc[nH]c4CCN3c3nnc(C4CC4)o3)cc12 , report its measured AC50.
result: < 500 nM

query: Given the entry Cc1cc(-c2nnc(C(=O)N3CCc4[nH]cnc4[C@H]3c3cc4c(C5CC5)cccn4n3)o2)nn1C , report its measured AC50.
result: 500 to 1000 nM

query: Given the entry O=C(c1nnc(C2CC2)s1)N1CCc2[nH]cnc2[C@H]1c1cc2ccccn2n1 , report its measured AC50.
result: 500 to 1000 nM

query: Given the entry COc1cccn2nc([C@@H]3c4nc[nH]c4CCN3c3ncccn3)cc12 , report its measured AC50.
result: < 500 nM

query: Given the entry O=C(c1cnn2ccccc12)N1CCc2[nH]cnc2[C@H]1c1cc2cccc(Cl)n2n1 , report its measured AC50.
result: 1000 to 5000 nM

query: Given the entry O=C(c1nnc(-c2cncnc2)o1)N1CCc2[nH]cnc2[C@@H]1c1cc2c(F)cccn2n1 , report its measured AC50.
result: > 5000 nM

query: Given the entry O=C(c1ncco1)N1CCc2[nH]cnc2[C@H]1c1cc2c(C(F)(F)F)cccn2n1 , report its measured AC50.
result: 500 to 1000 nM

query: Given the entry O=C(c1nnc(-c2ccn(C(F)(F)F)n2)o1)N1CCc2[nH]cnc2[C@@H]1c1cc2c(C3CC3)cccn2n1 , report its measured AC50.
result: > 5000 nM

query: Given the entry Fc1cccc(F)c1-c1nnc(N2CCc3[nH]cnc3[C@@H]2c2cc3cccc(C(F)(F)F)n3n2)o1 , report its measured AC50.
result: 1000 to 5000 nM

====

TARGET_UNDER_TEST: human PAH with the R408W mutation (Homo sapiens, UniProt P00439, R408W)
Construct: expressed in transfected cells
Sequence (P00439 1-452 R408W): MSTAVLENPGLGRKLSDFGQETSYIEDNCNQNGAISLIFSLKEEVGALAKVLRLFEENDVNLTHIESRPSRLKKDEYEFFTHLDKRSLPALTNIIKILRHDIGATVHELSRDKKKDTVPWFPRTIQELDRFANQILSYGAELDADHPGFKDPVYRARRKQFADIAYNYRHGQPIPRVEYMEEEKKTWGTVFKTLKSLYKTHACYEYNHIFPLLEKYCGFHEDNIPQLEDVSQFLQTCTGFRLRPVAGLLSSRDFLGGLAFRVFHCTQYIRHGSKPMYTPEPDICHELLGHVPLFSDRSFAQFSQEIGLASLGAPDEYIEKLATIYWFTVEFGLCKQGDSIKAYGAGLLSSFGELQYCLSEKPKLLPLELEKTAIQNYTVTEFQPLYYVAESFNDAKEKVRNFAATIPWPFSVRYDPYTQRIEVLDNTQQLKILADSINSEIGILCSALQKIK
PROTOCOL_DESCRIPTION: Cell Based Phenylalanine Flux Assay;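 also: after compound treatment, cells received sepiapterin plus isotope-labelled Phenylalanine for 4 hours, then labelled Tyrosine in the medium was quantified, 10-point 2-fold dilution series run in duplicate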
CONDITION_NOTES: A375 cells expressing human PAH R408W; 24 hrs compound incubation; 13C-Tyrosine by LC-MS; average where tested multiple times; read-out: AC50
The molecules listed here are annotated with their AC50.

Completed entries (count: 2):
| CHEMICAL_STRING | AC50 |
| --- | --- |
| FC(F)(F)c1cnc(N2CCc3[nH]cnc3[C@H]2c2cc3c(C4CC4)cccn3n2)nc1 | < 500 nM |
| O=C(c1nc2ccccc2s1)N1CCc2[nH]cnc2[C@H]1c1cc2c(F)cccn2n1 | 500 to 1000 nM |

query: Given the entry Cc1nc([C@H](C)O)oc1C(=O)N1CCc2[nH]cnc2[C@H]1c1cc2cccc(C(F)(F)F)n2n1 , report its measured AC50.
result: 1000 to 5000 nM

query: Given the entry FC(F)(F)c1nnc(N2CCc3[nH]cnc3[C@H]2c2cc3cccc(C(F)(F)F)n3n2)o1 , report its measured AC50.
result: 1000 to 5000 nM
